- Test system: MDA-MB-231 cells
- Test method notes: Cell viability, MTS Assay in MDA-MB-231 Cells
- Format: cell-based
- Condition parameters: human, 72 hours
Residues, ends and D or L forms follow the SMILES beside them.
Measured quantity: MTS cell viability, Percent of Control Activity (%)
Answer in %, number only, no unit symbol.

Worked cases, answers included:
[[record]]
molecule = "CC[C@H](C)[C@H](NC(=O)[C@H](C)NC(=O)[C@H](CO)NC(=O)CNC(=O)[C@@H]1CCCN1C(=O)[C@H](CC(C)C)NC(=O)[C@H](CCCNC(=N)N)NC(=O)[C@@H](N)CCSC)C(=O)N[C@@H](CC(C)C)C(=O)N[C@H](C(=O)N[C@@H](CC(N)=O)C(=O)N1CCC[C@H]1C(=O)N[C@H](C(=O)N[C@@H](CC(C)C)C(=O)NCC(=O)N[C@@H](Cc1c[nH]c2ccccc12)C(=O)N[C@H](C(=O)N[C@@H](Cc1c[nH]c2ccccc12)C(=O)N[C@H](C(=O)O)C(C)C)C(C)C)C(C)C)[C@@H](C)O [compound 7] (H-MRLPGSAILTNPVLGWVWV-OH)"
unit_abbrev = "%"
observed_value = 88

[[record]]
molecule = "CC[C@H](C)[C@H](NC(=O)[C@H](C)NC(=O)[C@H](Cc1c[nH]c2ccccc12)NC(=O)[C@@H](N)CCSC)C(=O)N[C@@H](CC(=O)O)C(=O)N[C@@H](CCC(=O)O)C(=O)N[C@@H](CCCCN)C(=O)N[C@@H](C)C(=O)N[C@H](C(=O)N[C@@H](CCC(=O)O)C(=O)N[C@@H](C)C(=O)N[C@@H](CO)C(=O)NCC(=O)N[C@@H](CCC(=O)O)C(=O)O)C(C)C [compound 30] (H-MWAIDEKAVEASGE-OH; N-terminus and C-terminus assumed)"
unit_abbrev = "%"
observed_value = 76


In: # lookup: MTS cell viability, Percent of Control Activity of CC[C@H](C)[C@H](NC(=O)CNC(=O)[C@H](CCC(=O)O)NC(=O)[C@H](CCCNC(=N)N)NC(=O)CNC(=O)[C@H](Cc1c[nH]c2ccccc12)NC(=O)[C@@H]1CCCN1C(=O)[C@H](Cc1c[nH]cn1)NC(=O)CNC(=O)CNC(=O)[C@H](CCC(=O)O)NC(=O)[C@H](CO)NC(=O)[C@H](CC(C)C)NC(=O)[C@@H]1CCCN1C(=O)CNC(=O)[C@H](CCCCN)NC(=O)[C@@H](NC(=O)[C@@H](NC(=O)[C@@H](N)CCSC)C(C)C)C(C)C)C(=O)O [compound 25] (H-MVVKGPLSEGGHPWGREGI-OH; N-terminus and C-terminus assumed)
Out: 76

In: Param item: CC[C@H](C)[C@H](NC(=O)[C@H](C)NC(=O)[C@H](CCCNC(=N)N)NC(=O)[C@H](C)NC(=O)[C@@H](NC(=O)[C@H](CCCNC(=N)N)NC(=O)[C@H](CCCNC(=N)N)NC(=O)[C@@H](NC(=O)[C@H](C)NC(=O)[C@H](CC(C)C)NC(=O)[C@@H](N)CCSC)C(C)C)[C@@H](C)O)C(=O)NCC(=O)O [compound 2] (H-MLAVRRTARAIG-OH; N-terminus and C-terminus assumed)
Out: 78
